- Test system: human ovarian cancer cell line ES-2
- experiment notes: Cell viability (CellTiter Glo) of ES-2 in combination with cisplatin or carboplatin
- Format: cell-based
- run conditions: Homo sapiens, ES-2; used in combination with carboplatin (100 μmol/L, Table 6)
- Excerpt: On the combinational effect of the embodiment of the invention, the results of evaluation using a combination index (CI) which is a quantitative index of the combinational effect are shown. The CI can be calculated by the following equation according to Cancer Research, 2010, Vol. 70, pp. 440 to 446. That is, in a case where the drugs to be used in combination are drug 1 and drug 2, the CI at a certain drug concentration is […]
endpoint name: IC50 (nM)
Numbers only, in nM.

IC50 reading for Nc1ccn([C@@H]2S[C@H](CO)[C@@H](O)[C@@H]2F)c(=O)n1 [Compound A] : 46
